- tested system: ZFP SBS#1056 (synthetic)
- Sequence (chain, as listed by the source): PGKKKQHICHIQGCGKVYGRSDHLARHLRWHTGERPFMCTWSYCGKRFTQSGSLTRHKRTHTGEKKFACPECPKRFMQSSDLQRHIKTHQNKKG
- test description: EMSA
- condition details: tags: MBP fusion
endpoint label: Kd (nM)

{"binder": "GCTGCAGGG (dsDNA) DNA 1: GCTGCAGGG DNA 2: CCCTGCAGC", "result value": 0.045}

Taken from patent US20030068675.
